For reference, IC50 measured on mTOR kinase domain (Homo sapiens, UniProt P42345):

Provide reported IC50 for each item, in the same order as listed.
1. CC(CO)n1nc(-c2ccc3oc(N)nc3c2)c2c(N)ncnc21 (centres unmarked) [Compound B]
2. CC(C)(CO)n1nc(-c2ccc3oc(N)nc3c2)c2c(N)ncnc21 [Compound A]

["< 100 nM", "< 100 nM"]
